- test-system: Hfq WT (Escherichia coli, UniProt P0A6X3 1-102)
- assay-method-text: ITC; 5 mM MgCl2; N 0.96 RNA/hexamer; second weaker event offset; ITC: 20 mM Tris-HCl pH 7.5, 100 mM NaCl, 20 mM KCl, 30°C; plus 5 mM MgCl2 for U6; Hfq hexamer 10-18 µM in cell
- reported-conditions: protein: recombinant; chain copies: 6; single strand
property-measured: Kd (nM)
Entry rule: numbers only, all in nM.

Ask: # input binder: UUUUUU (ssRNA) [U6] ; wanted: its Kd
Result: 42.2
